assay: qHTS Screen of the MIPE 4.0 Collection Against Ewings Sarcoma (EW8) (AID 1259255); conditions: EW8 Ewing sarcoma viability, CellTiter-Glo, 48 h; series mostly up to 45.8 µM; note: nearly all actives have a fitted effect of over 35% in size;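 for viability: 100% = DMSO-treated cells and 0% = medium-only wells without cells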
Results filed as inconclusive are left out. The source made the active and inactive calls. Calls come from the whole dose curve; as a rule, active = well fitted inhibition curve with a large enough effect; inconclusive = small, poorly fitted or top-dose-only effect; inactive = no such curve, though single readings can be large or run the other way.
Your response should consist of one outcome taken from true (1) (active), false (0) (inactive)

| Molecule | Category Label |
| --- | --- |
| C[C@@H]1C[C@H]2[C@@H]3CCC4=CC(=O)C=C[C@]4(C)[C@@]3(Cl)[C@@H](O)C[C@]2(C)[C@@]1(OC(=O)c1ccco1)C(=O)CCl | true (1) |

Query block: Which outcome was entered for the molecule `OCc1ccc(-c2nn(Cc3ccccc3)c3ccccc23)o1` in this test?
Result block: true (1)

Query block: And then CCCCS(=N)(=O)CCC(N)C(=O)O (configuration not stated) , what is it?
Result block: false (0)

Query block: And then `O=c1cc(O)c(Cl)c[nH]1` , what is it?
Result block: false (0)

Query block: And then `Nc1nc(F)nc2c1ncn2[C@@H]1O[C@H](CO)[C@@H](O)[C@@H]1O` , what is it?
Result block: true (1)

Query block: And then `CCN(CC)CCn1c(=O)c(Cc2ccc(OC)cc2)nc2ccccc21` , what is it?
Result block: false (0)

Query block: And then `O=C(N[C@H](CO)[C@H](O)c1ccc([N+](=O)[O-])cc1)C(Cl)Cl` , what is it?
Result block: false (0)

----------
assay: qHTS Screen of the MIPE 4.0 Collection Against Ewings Sarcoma (EW8) (AID 1259255); settings: EW8 Ewing sarcoma viability, CellTiter-Glo, 48 h; series mostly up to 45.8 µM; note: nearly all actives have a fitted effect of over 35% in size; note: potency is the fitted concentration of half-maximal effect;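 for viability: 100% = DMSO-treated cells and 0% = medium-only wells without cells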
Records with an inconclusive call do not appear. Active and inactive are the calls of the source. The call rests on the fitted dose curve; in most records, active means well fitted inhibition curve with a large enough effect; inconclusive means small, poorly fitted or top-dose-only effect; inactive means no such curve, though single readings can be large or run the other way.
Experimental Endpoint: Potency

| Compound | Experimental Endpoint | Result |
| --- | --- | --- |
| NNC(=O)c1ccncc1 | Potency | inactive |
| Cc1c(-c2ccc(O)cc2)n(Cc2ccc(OCCN3CCCCCC3)cc2)c2ccc(O)cc12 | Potency | inactive |
| CN1CCN(c2c(F)cc3c(=O)c(C(=O)O)cn4c3c2OCN4C)CC1 | Potency | inactive |
| CC1=NN(c2ccccc2)C(=O)C1 | Potency | inactive |
| COCCCOc1cc(C[C@@H](C[C@H](N)[C@@H](O)C[C@H](C(=O)NCC(C)(C)C(N)=O)C(C)C)C(C)C)ccc1OC | Potency | inactive |

Query block: Given `CC(C)(C)NC(=O)[C@H]1CC[C@H]2[C@@H]3CC[C@H]4NC(=O)C=C[C@]4(C)[C@H]3CC[C@]12C` , state its recorded Potency.
Result block: 5.9 µM (active)

Query block: And then `CC(=O)Oc1ccccc1C(=O)Nc1ncc([N+](=O)[O-])s1` , what is it?
Result block: 21.5 µM (active)

Query block: And then `CC(C)OC(=O)OCOP(=O)(CO[C@H](C)Cn1cnc2c(N)ncnc21)OCOC(=O)OC(C)C` , what is it?
Result block: 23.5 µM (active)

Query block: And then C1CCC(C(CC2CCCCN2)C2CCCCC2)CC1 (stereo not given) , what is it?
Result block: 13.2 µM (active)

Query block: And then `CCn1cc(C(=O)O)c(=O)c2cc(F)c(N3CCNCC3)nc21` , what is it?
Result block: inactive

Each recorded value in this set is attributed to PubChem BioAssay (NCATS).
